System: TGBC24TKB (Biliary Tract Carcinoma)
Assay: combination Emax (second highest fraction inhibited in the dose matrix, 72 h); higher = more inhibition; extreme values may be limits of the assay
combination Emax overview
Output: the number by itself.

Below, 2 compounds whose answers are already recorded.
[
  {
    "Compound": "NC1(C(=O)N[C@@H](CCO)c2ccc(Cl)cc2)CCN(c2ncnc3[nH]ccc23)CC1 [Capivasertib] + Cn1cnc2c(F)c(Nc3ccc(Br)cc3Cl)c(C(=O)NOCCO)cc21 [Selumetinib] (first compound max 10 µM, 7x7, partner max 10 µM)",
    "combination Emax": 0.556
  },
  {
    "Compound": "CC1(C)CCC(CN2CCN(c3ccc(C(=O)NS(=O)(=O)c4ccc(NCC5CCOCC5)c([N+](=O)[O-])c4)c(Oc4cnc5[nH]ccc5c4)c3)CC2)=C(c2ccc(Cl)cc2)C1 [Venetoclax] + Cn1cnc2c(F)c(Nc3ccc(Br)cc3Cl)c(C(=O)NOCCO)cc21 [Selumetinib] (first compound max 1 µM, 7x7, partner max 3 µM)",
    "combination Emax": 0.293
  }
]

Let's switch to this compound now.
Qu. Form field - read-out: combination Emax; system: TGBC24TKB (Biliary Tract Carcinoma); submitted item: Cc1c2c(nn1C)CSCc1cc(n(C)n1)CSc1cc(c3ccccc3c1)OCCCc1c(C(=O)O)n(C)c3c-2c(Cl)ccc13 [AZD5991] + Cc1cc2ncnn2cc1Nc1ncc2c(n1)n(C1CCOCC1)c(=O)n2C [AZD7648] (first compound max 1 µM, 7x7, partner max 10 µM)
Ans. 0.243
